Each entry below lists one item and its recorded MIC-fold improvement vs. vancomycin value.
# System: Clostridium difficile ATJ ribotype 014/20
# protocol.summary: MIC, plate drop assay, C. difficile ATJ ribotype 014/20
# Type: cell-based
# particulars: C. difficile ATJ ribotype 014/20
# Protocol: Bacterial lawns of both C. difficile strains were prepared by adding 0.5 mL overnight culture to 8 mL sloppy BHI agar (0.4% agar) supplemented with 1.5 g/L CaCl2⋅2H2O and 81.2 g/L MgCl2⋅6H2O, and pouring the mixture into Petri plates. A twofold dilution series of the selected vancomycin analogs, vancomycin ([…]) and daptomycin (25 μM) was spotted (10 μL) on the bacterial lawn. Spots were air-dried and the plates were incubated overnight at 37°C in an anaerobic cabinet. […]
quantity.name: MIC-fold improvement vs. vancomycin

{"compound": "CN[C@H](CC(C)C)C(=O)N[C@H]1C(=O)N[C@@H](CC(N)=O)C(=O)N[C@H]2C(=O)N[C@H]3C(=O)N[C@H](C(=O)N[C@H](C(=O)NCC(=O)Nc4ccc(Cl)cc4Cl)c4cc(O)cc(O)c4-c4cc3ccc4O)[C@H](O)c3ccc(c(Cl)c3)Oc3cc2cc(c3O[C@@H]2O[C@H](CO)[C@@H](O)[C@H](O)[C@H]2O[C@H]2C[C@](C)(N)[C@H](O)[C@H](C)O2)Oc2ccc(cc2Cl)[C@H]1O [Vanc-14]", "quantitative.result": 22}
{"compound": "CN[C@H](CC(C)C)C(=O)N[C@H]1C(=O)N[C@@H](CC(N)=O)C(=O)N[C@H]2C(=O)N[C@H]3C(=O)N[C@H](C(=O)N[C@H](C(=O)NCCNC(=O)/C=C/c4ccc(F)cc4)c4cc(O)cc(O)c4-c4cc3ccc4O)[C@H](O)c3ccc(c(Cl)c3)Oc3cc2cc(c3O[C@@H]2O[C@H](CO)[C@@H](O)[C@H](O)[C@H]2O[C@H]2C[C@](C)(N)[C@H](O)[C@H](C)O2)Oc2ccc(cc2Cl)[C@H]1O [Vanc-22]", "quantitative.result": 5.6}

----------
# Tested on: E. faecalis VRE 53
# protocol.summary: MIC, broth microdilution, vancomycin-resistant E. faecalis VRE 53 (VanA)
# Assay type: cell-based, Enterococcus faecalis
# particulars: VRE 53; ratio of MIC of vancomycin and MIC of analogue
Each entry below lists one item and its recorded MIC-fold improvement vs. vancomycin value.
quantity.name: MIC-fold improvement vs. vancomycin

{"molecule": "CCCCCc1ccc(NC(=O)CNC(=O)[C@H]2NC(=O)[C@H]3NC(=O)[C@H](NC(=O)[C@@H]4NC(=O)[C@H](CC(N)=O)NC(=O)[C@H](NC(=O)[C@@H](CC(C)C)NC)[C@H](O)c5ccc(c(Cl)c5)Oc5cc4cc(c5O[C@@H]4O[C@H](CO)[C@@H](O)[C@H](O)[C@H]4O[C@H]4C[C@](C)(N)[C@H](O)[C@H](C)O4)Oc4ccc(cc4Cl)[C@H]3O)c3ccc(O)c(c3)-c3c(O)cc(O)cc32)cc1", "measured.target": "E. faecalis VRE 53", "quantity.name": "MIC-fold improvement vs. vancomycin", "quantitative.result": 64}
{"molecule": "CCc1cccc(C)c1NC(=O)CNC(=O)C1NC(=O)C2NC(=O)C(NC(=O)C3NC(=O)C(CC(N)=O)NC(=O)C(NC(=O)C(CC(C)C)NC)C(O)c4ccc(c(Cl)c4)Oc4cc3cc(c4OC3OC(CO)C(O)C(O)C3OC3CC(C)(N)C(O)C(C)O3)Oc3ccc(cc3Cl)C2O)c2ccc(O)c(c2)-c2c(O)cc(O)cc21 (stereo not drawn)", "measured.target": "E. faecalis VRE 53", "quantity.name": "MIC-fold improvement vs. vancomycin", "quantitative.result": 16}
{"molecule": "CN[C@H](CC(C)C)C(=O)N[C@H]1C(=O)N[C@@H](CC(N)=O)C(=O)N[C@H]2C(=O)N[C@H]3C(=O)N[C@H](C(=O)N[C@H](C(=O)NCC(=O)Nc4ccc(NS(=O)(=O)c5ccc(Cl)cc5Cl)cc4)c4cc(O)cc(O)c4-c4cc3ccc4O)[C@H](O)c3ccc(c(Cl)c3)Oc3cc2cc(c3O[C@@H]2O[C@H](CO)[C@@H](O)[C@H](O)[C@H]2O[C@H]2C[C@](C)(N)[C@H](O)[C@H](C)O2)Oc2ccc(cc2Cl)[C@H]1O", "measured.target": "E. faecalis VRE 53", "quantity.name": "MIC-fold improvement vs. vancomycin", "quantitative.result": 64}

----------
# System: L1210, CEM and HeLa cell lines
# protocol.summary: Cytostatic activity, average or summary over L1210, CEM and HeLa
# Assay type: cell-based
# particulars: average of L1210, CEM and HeLa; read-out: Toxicity (IC50) Average
pIC50: −log10 of the molar value.
quantity.name: pIC50

{"compound": "CC(=O)NC[C@H]1CN(c2ccc(N3CCOCC3)c(F)c2)C(=O)O1 [Linezolid, reference compound]", "quantity.name": "pIC50", "quantitative.result": 3.68}
{"compound": "CN[C@H](CC(C)C)C(=O)N[C@H]1C(=O)N[C@@H](CC(N)=O)C(=O)N[C@H]2C(=O)N[C@H]3C(=O)N[C@H](C(=O)N[C@H](C(=O)NCC(=O)Nc4ccc(Oc5ccccc5)cc4)c4cc(O)cc(O)c4-c4cc3ccc4O)[C@H](O)c3ccc(c(Cl)c3)Oc3cc2cc(c3O[C@@H]2O[C@H](CO)[C@@H](O)[C@H](O)[C@H]2O[C@H]2C[C@](C)(N)[C@H](O)[C@H](C)O2)Oc2ccc(cc2Cl)[C@H]1O", "quantity.name": "pIC50", "quantitative.result": 3.80}
{"compound": "CN[C@H](CC(C)C)C(=O)N[C@H]1C(=O)N[C@@H](CC(N)=O)C(=O)N[C@H]2C(=O)N[C@H]3C(=O)N[C@H](C(=O)N[C@H](C(=O)NCC(=O)Nc4ccc(Cl)cc4Cl)c4cc(O)cc(O)c4-c4cc3ccc4O)[C@H](O)c3ccc(c(Cl)c3)Oc3cc2cc(c3O[C@@H]2O[C@H](CO)[C@@H](O)[C@H](O)[C@H]2O[C@H]2C[C@](C)(N)[C@H](O)[C@H](C)O2)Oc2ccc(cc2Cl)[C@H]1O", "quantity.name": "pIC50", "quantitative.result": 3.86}
{"compound": "CNC(CC(C)C)C(=O)NC1C(=O)NC(CC(N)=O)C(=O)NC2C(=O)NC3C(=O)NC(C(=O)NC(C(=O)NCCCNC(=O)c4nc5ccccc5[nH]4)c4cc(O)cc(O)c4-c4cc3ccc4O)C(O)c3ccc(c(Cl)c3)Oc3cc2cc(c3OC2OC(CO)C(O)C(O)C2OC2CC(C)(N)C(O)C(C)O2)Oc2ccc(cc2Cl)C1O (stereo not shown)", "quantity.name": "pIC50", "quantitative.result": 3.70}

----------
# System: E. faecalis VSE 1
# protocol.summary: MIC, broth microdilution, vancomycin-sensitive E. faecalis (VSE 1)
# Assay type: cell-based, Enterococcus faecalis
# particulars: E. faecalis VSE 1; ratio of MIC of vancomycin and MIC of analogue
quantity.name: MICvanc/MICi

{"structure.as.smiles": "C#Cc1ccc(-c2ccc(C(=O)NCCCNC(=O)[C@H]3NC(=O)[C@H]4NC(=O)[C@H](NC(=O)[C@@H]5NC(=O)[C@H](CC(N)=O)NC(=O)[C@H](NC(=O)[C@@H](CC(C)C)NC)[C@H](O)c6ccc(c(Cl)c6)Oc6cc5cc(c6O[C@@H]5O[C@H](CO)[C@@H](O)[C@H](O)[C@H]5O[C@H]5C[C@](C)(N)[C@H](O)[C@H](C)O5)Oc5ccc(cc5Cl)[C@H]4O)c4ccc(O)c(c4)-c4c(O)cc(O)cc43)cc2)cc1", "result": 64}

----------
# System: Murine leukemia (L1210) cells
# protocol.summary: Cytostatic activity, L1210 cell proliferation
# Assay type: cell-based
# particulars: mean ± SD of three experiments; highest concentration tested 250 µM; 2 days; read-out: Toxicity (IC50) L1210
pIC50: −log10 of the molar value.

{"compound": "CN[C@H](CC(C)C)C(=O)N[C@H]1C(=O)N[C@@H](CC(N)=O)C(=O)N[C@H]2C(=O)N[C@H]3C(=O)N[C@H](C(=O)N[C@H](C(=O)NCCNC(=O)/C=C/c4ccc(NS(=O)(=O)c5ccc(C)cc5)cc4)c4cc(O)cc(O)c4-c4cc3ccc4O)[C@H](O)c3ccc(c(Cl)c3)Oc3cc2cc(c3O[C@@H]2O[C@H](CO)[C@@H](O)[C@H](O)[C@H]2O[C@H]2C[C@](C)(N)[C@H](O)[C@H](C)O2)Oc2ccc(cc2Cl)[C@H]1O [Vanc-55]", "pIC50": "< 3.60"}
{"compound": "CCc1cccc(C)c1NC(=O)CNC(=O)C1NC(=O)C2NC(=O)C(NC(=O)C3NC(=O)C(CC(N)=O)NC(=O)C(NC(=O)C(CC(C)C)NC)C(O)c4ccc(c(Cl)c4)Oc4cc3cc(c4OC3OC(CO)C(O)C(O)C3OC3CC(C)(N)C(O)C(C)O3)Oc3ccc(cc3Cl)C2O)c2ccc(O)c(c2)-c2c(O)cc(O)cc21 (stereo not drawn) [Vanc-19]", "pIC50": "< 3.60"}
{"compound": "CN[C@H](CC(C)C)C(=O)N[C@H]1C(=O)N[C@@H](CC(N)=O)C(=O)N[C@H]2C(=O)N[C@H]3C(=O)N[C@H](C(=O)N[C@H](C(=O)NCC(=O)Nc4ccc(-c5cn(-c6ccccc6)nn5)cc4)c4cc(O)cc(O)c4-c4cc3ccc4O)[C@H](O)c3ccc(c(Cl)c3)Oc3cc2cc(c3O[C@@H]2O[C@H](CO)[C@@H](O)[C@H](O)[C@H]2O[C@H]2C[C@](C)(N)[C@H](O)[C@H](C)O2)Oc2ccc(cc2Cl)[C@H]1O [Vanc-77]", "pIC50": 3.72}
